Each recorded value in this set is attributed to the supplement of paper PMC9950053.

System: Danio rerio larvae (5 dpf)
Assay: combined upward orientation toward moving lines (periods 7-14) minus DMSO control (percentage points); higher = more orientation with moving lines than DMSO larvae
Details: 10 µM; exposure time: 3 h pre-incubation + 3 h imaging
Where a name gives a salt, the structure may show the parent alone.
resultType: combined upward orientation toward moving lines
# output: bare number, no unit

Worked examples follow.
| compound | recordedMeasurement |
| --- | --- |
| CC(=O)O[C@]1(C(C)=O)CC[C@H]2[C@@H]3C=C(C)C4=CC(=O)CC[C@]4(C)[C@H]3CC[C@@]21C [Megestrol Acetate] | -1.8 |
| CC(c1cc2ccccc2s1)N(O)C(N)=O (stereo not drawn) [Zileuton] | -7.03 |
| O=c1[nH]c(=O)n([C@H]2C[C@H](O)[C@@H](CO)O2)cc1C(F)(F)F [Trifluorothymidine] | -3.41 |

get_value(item= CC#C[C@]1(O)CC[C@H]2[C@@H]3CCC4=CC(=O)CCC4=C3[C@@H](c3ccc(N(C)C)cc3)C[C@@]21C [Mifepristone] , readout=combined upward orientation toward moving lines) returns 2.94

get_value(item= CCOC(=O)C1=C(COCCN)NC(C)=C(C(=O)OC)C1c1ccccc1Cl (stereo not drawn) [Amlodipine besylate] , readout=combined upward orientation toward moving lines) returns 0.386

get_value(item= CCOc1ccccc1OCCN[C@H](C)Cc1ccc(OC)c(S(N)(=O)=O)c1 [Tamsulosin hydrochloride] , readout=combined upward orientation toward moving lines) returns -16.3

get_value(item= CS(=O)(=O)CCNCc1ccc(-c2ccc3ncnc(Nc4ccc(OCc5cccc(F)c5)c(Cl)c4)c3c2)o1 [Lapatinib] , readout=combined upward orientation toward moving lines) returns 1.75

get_value(item= OC(CNCC(O)C1CCc2cc(F)ccc2O1)C1CCc2cc(F)ccc2O1 (stereo not drawn) [Nebivolol hydrochloride] , readout=combined upward orientation toward moving lines) returns -7.15

###

Tested on: Danio rerio larvae (5 dpf)
Assay: habituation (activity change first vs second 5 min of 1-s interval sound, period 17) minus DMSO control (percentage points); higher = larger habituation measure than DMSO larvae
Settings: 10 µM; exposure time: 3 h pre-incubation + 3 h imaging
Counter-ions that a name gives are not always drawn.
resultType: habituation
# output: bare number, no unit

Worked examples follow.
| compound | recordedMeasurement |
| --- | --- |
| CN1CC2c3ccccc3Oc3ccc(Cl)cc3C2C1 (stereo unspecified) [Asenapine maleate] | -12.6 |
| CN1CC[C@@H](NC(=O)Nc2ccc(C#N)cc2)C[C@@H]1c1nc2ccccc2[nH]1 | -0.504 |
| CN(C)CCC[C@@]1(c2ccc(F)cc2)OCc2cc(C#N)ccc21 [Escitalopram oxalate] | -6.32 |
| CCCN(CCC)S(=O)(=O)c1ccc(C(=O)O)cc1 | 3.79 |
| CCC(C)(C)C(=O)O[C@H]1C[C@@H](C)C=C2C=C[C@H](C)[C@H](CC[C@@H]3C[C@@H](O)CC(=O)O3)[C@H]21 | -1.02 |

get_value(item= O=C(c1ccc(OCCN2CCCCC2)cc1)c1c(-c2ccc(O)cc2)sc2cc(O)ccc12 [Raloxifene hydrochloride] , readout=habituation) returns -3.07

###

Listed here are compounds together with their documented combined upward orientation toward moving lines.
System: Danio rerio larvae (5 dpf)
Assay: combined upward orientation toward moving lines (periods 7-14) minus DMSO control (percentage points); higher = more orientation with moving lines than DMSO larvae
Details: 10 µM; exposure time: 3 h pre-incubation + 3 h imaging
Structures can show the parent of a compound that is named as a salt.
# output: bare number, no unit

Worked examples follow.
| compound | recordedMeasurement |
| --- | --- |
| C=CC(=O)N1CCC[C@@H](n2nc(-c3ccc(Oc4ccccc4)cc3)c3c(N)ncnc32)C1 | -3.41 |
| O=C(c1ccc(OCCN2CCCCC2)cc1)c1c(-c2ccc(O)cc2)sc2cc(O)ccc12 [Raloxifene hydrochloride] | -2.81 |

# lookup: CCCc1nc(C(C)(C)O)c(C(=O)O)n1Cc1ccc(-c2ccccc2-c2nnn[nH]2)cc1 on Danio rerio larvae (5 dpf), combined upward orientation toward moving lines = -6.03

# lookup: CC[C@H](C)C(=O)O[C@H]1C[C@@H](C)C=C2C=C[C@H](C)[C@H](CC[C@@H]3C[C@@H](O)CC(=O)O3)[C@H]21 on Danio rerio larvae (5 dpf), combined upward orientation toward moving lines = -3.5

# lookup: COc1cc2ncnc(Nc3ccc(F)c(Cl)c3)c2cc1OCCCN1CCOCC1 on Danio rerio larvae (5 dpf), combined upward orientation toward moving lines = -7.88

# lookup: C/C(O)=C(\C#N)C(=O)Nc1ccc(C(F)(F)F)cc1 [Teriflunomide] on Danio rerio larvae (5 dpf), combined upward orientation toward moving lines = -3.07

# lookup: CC1CNc2c(cccc2S(=O)(=O)N[C@@H](CCCNC(=N)N)C(=O)N2CC[C@@H](C)C[C@@H]2C(=O)O)C1 (some centres not stated) on Danio rerio larvae (5 dpf), combined upward orientation toward moving lines = 0.479

###

System: Danio rerio larvae (5 dpf)
Test: combined upward orientation toward moving lines (periods 7-14) minus DMSO control (percentage points); higher = more orientation with moving lines than DMSO larvae
Details: 10 µM; exposure time: 3 h pre-incubation + 3 h imaging
Where a name gives a salt, the structure may show the parent alone.
resultType: combined upward orientation toward moving lines
# output: bare number, no unit

Worked examples follow.
| compound | recordedMeasurement |
| --- | --- |
| COCCc1ccc(OCC(O)CNC(C)C)cc1 (stereo not given) [Metoprolol tartrate] | -3.38 |
| CNCc1ccc(-c2[nH]c3cc(F)cc4c3c2CCNC4=O)cc1 [Rucaparib camsylate] | 2 |
| CC(C)COCC(CN(Cc1ccccc1)c1ccccc1)N1CCCC1 (stereo not given) [Bepridil hydrochloride] | 3.56 |
| NC(=O)OCC(COC(N)=O)c1ccccc1 [Felbamate] | 4.58 |

Moving on to the next compound.
get_value(item= N#Cc1ccc2[nH]cc(CCCCN3CCN(c4ccc5oc(C(N)=O)cc5c4)CC3)c2c1 [Vilazodone hydrochloride] , readout=combined upward orientation toward moving lines) returns -4.15

###

System: Danio rerio larvae (5 dpf)
Assay: startle (activity period 16 minus period 15, 20-s interval sound) minus DMSO control (percentage points); higher = stronger startle response than DMSO larvae
Settings: 10 µM; exposure time: 3 h pre-incubation + 3 h imaging
resultType: startle
# output: bare number, no unit

Worked examples follow.
| compound | targetOrTestSystem | startle |
| --- | --- | --- |
| C/C(O)=C(\C#N)C(=O)Nc1ccc(C(F)(F)F)cc1 [Teriflunomide] | Danio rerio larvae (5 dpf) | -2.62 |
| CN(CCOc1ccc(CC2SC(=O)NC2=O)cc1)c1ccccn1 (configuration not stated) [Rosiglitazone] | Danio rerio larvae (5 dpf) | -1.31 |
| C[C@H]1C[C@@H]2[C@H]([C@@H](O)C[C@@]3(C)[C@H]2CC[C@]3(O)C(=O)CO)[C@@]2(C)C=CC(=O)C=C12 [Methylprednisolone] | Danio rerio larvae (5 dpf) | 0.408 |

# lookup: C=C1[C@H](CO)[C@@H](O)C[C@@H]1n1cnc2c(=O)[nH]c(N)nc21 [Entecavir] on Danio rerio larvae (5 dpf), startle = 3.99

# lookup: Cc1ccc(O)c([C@H](CCN(C(C)C)C(C)C)c2ccccc2)c1 [Tolterodine L-tartrate] on Danio rerio larvae (5 dpf), startle = -5.5

# lookup: CC(C)(C(=O)c1cccnc1)c1cccnc1 [Metyrapone] on Danio rerio larvae (5 dpf), startle = -0.289

# lookup: Clc1ccc(COC(Cn2ccnc2)c2ccc(Cl)cc2Cl)c(Cl)c1 (configuration not stated) [Miconazole nitrate] on Danio rerio larvae (5 dpf), startle = 5.64

# lookup: CCN(Cc1ccncc1)C(=O)C(CO)c1ccccc1 (configuration not stated) [Tropicamide] on Danio rerio larvae (5 dpf), startle = -6.79

###

Test system: Danio rerio larvae (5 dpf)
Assay: startle (activity period 16 minus period 15, 20-s interval sound) minus DMSO control (percentage points); higher = stronger startle response than DMSO larvae
Settings: 10 µM; exposure time: 3 h pre-incubation + 3 h imaging
Where a name gives a salt, the structure may show the parent alone.
resultType: startle
# output: bare number, no unit

Worked examples follow.
| molecule | recordedMeasurement |
| --- | --- |
| CCOc1cc(CC(=O)N[C@@H](CC(C)C)c2ccccc2N2CCCCC2)ccc1C(=O)O [Repaglinide] | -4.11 |
| CC1(C)O[C@@H]2[C@@H](CO[C@@]3(COS(N)(=O)=O)OC(C)(C)O[C@@H]23)O1 [Topiramate] | -0.863 |
| Cc1cccc(CN2CCN(C(c3ccccc3)c3ccc(Cl)cc3)CC2)c1 (stereo not given) [Meclizine dihydrochloride] | -7.54 |
| CCOC(=O)C1=C(C)NC(C)=C(C(=O)OC)C1c1cccc(Cl)c1Cl (stereo not given) | 7.93 |

Moving on to the next molecule.
get_value(item= Cc1ccccc1C(=O)Nc1ccc(C(=O)N2CCCC(O)c3cc(Cl)ccc32)c(C)c1 (stereo not given) , readout=startle) returns 4.33

###

Listed here are compounds together with their documented combined upward orientation toward moving lines.
Tested on: Danio rerio larvae (5 dpf)
Assay: combined upward orientation toward moving lines (periods 7-14) minus DMSO control (percentage points); higher = more orientation with moving lines than DMSO larvae
Settings: 10 µM; exposure time: 3 h pre-incubation + 3 h imaging
Structures can show the parent of a compound that is named as a salt.
# output: bare number, no unit

Worked examples follow.
| compound | recordedMeasurement |
| --- | --- |
| COc1ccccc1OCC(O)CN1CCN(CC(=O)Nc2c(C)cccc2C)CC1 (centres undefined) [Ranolazine dihydrochloride] | 4.03 |
| CCCCCCCN(CC)CCCC(O)c1ccc(NS(C)(=O)=O)cc1 (centres undefined) [Ibutilide hemifumarate] | -0.0944 |
| COc1cc(N)c(Cl)cc1C(=O)NC1CCN(CCCOc2ccc(F)cc2)CC1OC (centres undefined) [Cisapride] | -4.69 |

get_value(item= CN[C@H]1CC[C@@H](c2ccc(Cl)c(Cl)c2)c2ccccc21 [Sertraline hydrochloride] , readout=combined upward orientation toward moving lines) returns -5.13
